Just for reference, patent US8778935B2 is where these values come from.

Measured pIC50, listed per entry for reference.
system: PI3K (p110α/p85α) (Homo sapiens)
Construct: purchased Carna Biosciences 07CBS-0402A
measurement_notes: PI3K Activity Assay (ADP Hunter Plus)
Assay type: biochemical
condition_parameters: semi-quantitative results; read-out: PI3Kα IC50 (semi-quantitative class)
pIC50: −log10 of the molar value.

Cc1cn2cc(-c3cccc(O)c3)nc(N3CCOCC3)c2n1 [2-23] ... > 7.00
CN1CCN(c2cnc3c(N4CCOCC4)nc(-c4cccc5[nH]ncc45)cn23)CC1 [2-38] ... 6.00 to 7.00

The measured pIC50 associated with Oc1cccc(-c2cn3cc(CN4CCOCC4)nc3c(N3CCOCC3)n2)c1 [2-09] reads 6.00 to 7.00

Lab note: measured pIC50 of Oc1cccc(-c2cn3cc(C4CC4)nc3c(N3CCOCC3)n2)c1 [2-14] was 6.00 to 7.00

Noted for CN1CCN(c2cnc3c(N4CCOCC4)nc(-c4cccc(O)c4)cn23)CC1 [2-37] : its pIC50 reads 6.00 to 7.00

response.value for N#Cc1cn2cc(-c3cccc4[nH]ncc34)nc(N3CCOCC3)c2n1 [2-22] (field: pIC50) = 6.00 to 7.00

Input CS(=O)(=O)N1CCN(Cc2cn3c(Cl)c(-c4cccc5[nH]ncc45)nc(N4CCOCC4)c3n2)CC1 [2-60] . Output pIC50: 6.00 to 7.00

OCc1cn2cc(-c3cccc(O)c3)nc(N3CCOCC3)c2n1 [2-04] has a reported pIC50 of 6.00 to 7.00

Recorded result, CS(=O)(=O)N1CCN(c2cnc3c(N4CCOCC4)nc(-c4cccc5[nH]ncc45)cn23)CC1 [2-41] , pIC50: 6.00 to 7.00

Memo: COc1cncc(-c2cn3cc(C)nc3c(N3CCOCC3)n2)c1 [2-27] , reported pIC50: < 6.00

# pIC50 (molecule: Oc1cccc(-c2cn3c(N4CCNCC4)cnc3c(N3CCOCC3)n2)c1 [2-40] ) is 6.00 to 7.00

Briefly, pIC50 measured for CN1CCN(C(=O)c2cn3cc(-c4cccc5[nH]ncc45)nc(N4CCOCC4)c3n2)CC1 [2-15] : 6.00 to 7.00

Sure, the documented pIC50 for O=C1CN(Cc2cn3cc(-c4cccc(O)c4)nc(N4CCOCC4)c3n2)CCN1 [2-08] is 6.00 to 7.00

# molecule CC(=O)N1CCN(Cc2cn3cc(-c4cccc(O)c4)nc(N4CCOCC4)c3n2)CC1 [2-06] ; its pIC50 = 6.00 to 7.00

Recorded result, Cc1nc2c(N3CCOCC3)nc(-c3cccc4[nH]ncc34)cn2c1C(=O)NC1CCNCC1 [2-64] , pIC50: < 6.00

----------
system: PI3K (p110α/p85α) (Homo sapiens, UniProt P42336)
Construct: purchased Carna Biosciences 07CBS-0402A
Sequence (P42336 whole entry): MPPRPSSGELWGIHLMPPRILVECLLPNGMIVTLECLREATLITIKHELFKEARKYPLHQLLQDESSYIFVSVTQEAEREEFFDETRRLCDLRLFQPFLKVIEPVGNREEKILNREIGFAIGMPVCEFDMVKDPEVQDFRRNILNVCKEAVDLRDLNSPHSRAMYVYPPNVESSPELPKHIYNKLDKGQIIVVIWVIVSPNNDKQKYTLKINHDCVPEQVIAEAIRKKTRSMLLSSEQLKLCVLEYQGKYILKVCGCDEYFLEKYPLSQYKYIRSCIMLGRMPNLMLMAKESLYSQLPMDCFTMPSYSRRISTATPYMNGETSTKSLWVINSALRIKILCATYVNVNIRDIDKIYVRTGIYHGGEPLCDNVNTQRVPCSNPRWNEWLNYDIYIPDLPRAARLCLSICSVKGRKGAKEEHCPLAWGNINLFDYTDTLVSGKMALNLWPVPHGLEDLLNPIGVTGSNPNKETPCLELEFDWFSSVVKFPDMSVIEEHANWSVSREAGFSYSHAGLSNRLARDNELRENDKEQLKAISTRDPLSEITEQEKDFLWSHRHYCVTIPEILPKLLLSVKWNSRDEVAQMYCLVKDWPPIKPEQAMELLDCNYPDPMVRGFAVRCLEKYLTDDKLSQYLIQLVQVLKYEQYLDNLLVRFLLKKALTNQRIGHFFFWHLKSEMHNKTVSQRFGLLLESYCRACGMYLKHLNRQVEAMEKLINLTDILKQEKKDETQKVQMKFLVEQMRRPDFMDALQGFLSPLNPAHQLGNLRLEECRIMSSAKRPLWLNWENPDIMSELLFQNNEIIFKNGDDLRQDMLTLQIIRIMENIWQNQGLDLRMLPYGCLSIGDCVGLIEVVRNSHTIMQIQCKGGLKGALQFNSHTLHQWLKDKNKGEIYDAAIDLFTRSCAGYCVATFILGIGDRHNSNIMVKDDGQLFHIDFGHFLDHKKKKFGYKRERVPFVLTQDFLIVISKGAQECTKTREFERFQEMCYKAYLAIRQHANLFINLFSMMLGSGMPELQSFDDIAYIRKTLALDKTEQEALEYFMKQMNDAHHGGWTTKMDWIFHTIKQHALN
Sequence (P27986 whole entry partner): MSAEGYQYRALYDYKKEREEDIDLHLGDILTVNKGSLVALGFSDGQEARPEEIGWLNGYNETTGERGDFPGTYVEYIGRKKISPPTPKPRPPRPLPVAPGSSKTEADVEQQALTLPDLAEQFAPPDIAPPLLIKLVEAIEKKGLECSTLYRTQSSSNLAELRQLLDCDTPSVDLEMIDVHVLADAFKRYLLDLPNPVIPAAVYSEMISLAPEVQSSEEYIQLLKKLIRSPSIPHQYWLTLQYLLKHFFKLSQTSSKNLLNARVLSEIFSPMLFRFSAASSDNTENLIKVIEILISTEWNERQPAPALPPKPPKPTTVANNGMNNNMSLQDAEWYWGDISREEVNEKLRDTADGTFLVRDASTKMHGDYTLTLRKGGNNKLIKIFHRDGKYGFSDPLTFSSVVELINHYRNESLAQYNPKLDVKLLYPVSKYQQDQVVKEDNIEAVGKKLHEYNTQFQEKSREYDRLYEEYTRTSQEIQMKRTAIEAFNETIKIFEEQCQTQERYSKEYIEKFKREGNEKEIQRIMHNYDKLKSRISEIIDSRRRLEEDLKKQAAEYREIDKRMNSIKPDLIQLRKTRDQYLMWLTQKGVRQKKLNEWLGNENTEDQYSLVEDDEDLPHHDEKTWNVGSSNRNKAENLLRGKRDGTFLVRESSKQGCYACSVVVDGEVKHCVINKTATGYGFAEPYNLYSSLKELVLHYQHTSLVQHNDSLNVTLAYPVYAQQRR
measurement_notes: PI3K Activity Assay (ADP Hunter Plus)
Type: biochemical
condition_parameters: quantitative results; read-out: PI3Kα IC50
observation_type: IC50 (nM)

Cc1cn2c(Cl)c(-c3cccc4[nH]ncc34)nc(N3CCOCC3)c2n1 ... 266

[P] Oc1cccc(-c2cn3cc(C(F)(F)F)nc3c(N3CCOCC3)n2)c1
[Q] CC(=O)Nc1ccc(-c2cn3cc(CN4CCN(S(C)(=O)=O)CC4)nc3c(N3CCOCC3)n2)cn1
Qu. Higher IC50 between P and Q ? Answer with the label corresponding to your selection.
Ans. Q
